- EXPERIMENTAL DETAILS: PK, intravenous administration
- Type: in vivo
- PROTOCOL CONDITIONS: rat, plasma, male Sprague Dawley rats, dose about 1 mg/kg, read-out: Vdss
ASSAY READOUT: Vd

# input compound: CC(C)n1ccc(S(=O)(=O)c2nnc(Nc3c4c(cc5c3CCC5)CCC4)[nH]2)n1 ; wanted: its Vd
0.54 L/kg

# input compound: O=S(=O)(CCCN1CCCC1)c1nnc(Nc2c3c(cc4c2CCC4)CCC3)[nH]1 ; wanted: its Vd
8.08 L/kg

# input compound: CN(C)CCNS(=O)(=O)c1nnc(Nc2c3c(cc4c2CCC4)CCC3)[nH]1 ; wanted: its Vd
3.21 L/kg

# input compound: CCN(CC)CCCS(=O)(=O)c1nnc(Nc2c3c(cc4c2CCC4)CCC3)[nH]1 ; wanted: its Vd
5.26 L/kg

# input compound: COc1cc(-c2cc(F)cc(C(C)C)c2Oc2nnc(S(=O)(=O)N3CCC(CN(C)C)C3)[nH]2)ccn1 (stereo not shown) ; wanted: its Vd
1.29 L/kg

# input compound: CN1CCCC12CCN(S(=O)(=O)c1nnc(Nc3c4c(cc5c3CCC5)CCC4)[nH]1)CC2 ; wanted: its Vd
5.9 L/kg

# input compound: CN1CCC2(CCN(S(=O)(=O)c3nnc(Nc4c5c(cc6c4CCC6)CCC5)[nH]3)CC2)C1 ; wanted: its Vd
7.51 L/kg

# input compound: O=S(=O)(c1ccccc1)c1nnc(Nc2c3c(cc4c2CCC4)CCC3)[nH]1 ; wanted: its Vd
0.54 L/kg

# input compound: COc1cc(-c2cc(F)cc(C(C)C)c2Oc2nnc(S(=O)(=O)N3CC4(CCN(C)C4)C3)[nH]2)ccn1 ; wanted: its Vd
0.6 L/kg

# input compound: Cc1cc(-c2cc(F)cc(C(C)C)c2Nc2nnc(S(=O)(=O)N3CCC(N(C)C)CC3)[nH]2)ccn1 ; wanted: its Vd
4.03 L/kg

# input compound: CN1CCC2(C1)CN(S(=O)(=O)c1nnc(Nc3c(-c4ccnc(OC(F)F)c4)ccc4c3CCO4)[nH]1)C2 ; wanted: its Vd
0.88 L/kg

# input compound: CS(=O)(=O)c1nnc(Nc2c3c(cc4c2CCC4)CCC3)[nH]1 ; wanted: its Vd
0.56 L/kg

# input compound: CS(=O)(=O)c1nnc(Nc2c(-c3ccnc(OC4CCCOC4)c3)ccc3c2CCC3)[nH]1 (stereo not shown) ; wanted: its Vd
0.149 L/kg

# input compound: CN(C)C1CCCN(S(=O)(=O)c2nnc(Nc3c4c(cc5c3CCC5)CCC4)[nH]2)CC1 (stereo not shown) ; wanted: its Vd
14.9 L/kg

# input compound: CN1CCC2(C1)CN(S(=O)(=O)c1nnc(Nc3c4c(cc5c3CCC5)CCC4)[nH]1)C2 ; wanted: its Vd
6.2 L/kg

# input compound: CN1CCOCC12CCN(S(=O)(=O)c1nnc(Nc3c4c(cc5c3CCC5)CCC4)[nH]1)CC2 ; wanted: its Vd
1.7 L/kg

---

- STUDY SYSTEM: NLRP3 (Homo sapiens, UniProt Q96P20)
- Sequence (Q96P20 whole entry): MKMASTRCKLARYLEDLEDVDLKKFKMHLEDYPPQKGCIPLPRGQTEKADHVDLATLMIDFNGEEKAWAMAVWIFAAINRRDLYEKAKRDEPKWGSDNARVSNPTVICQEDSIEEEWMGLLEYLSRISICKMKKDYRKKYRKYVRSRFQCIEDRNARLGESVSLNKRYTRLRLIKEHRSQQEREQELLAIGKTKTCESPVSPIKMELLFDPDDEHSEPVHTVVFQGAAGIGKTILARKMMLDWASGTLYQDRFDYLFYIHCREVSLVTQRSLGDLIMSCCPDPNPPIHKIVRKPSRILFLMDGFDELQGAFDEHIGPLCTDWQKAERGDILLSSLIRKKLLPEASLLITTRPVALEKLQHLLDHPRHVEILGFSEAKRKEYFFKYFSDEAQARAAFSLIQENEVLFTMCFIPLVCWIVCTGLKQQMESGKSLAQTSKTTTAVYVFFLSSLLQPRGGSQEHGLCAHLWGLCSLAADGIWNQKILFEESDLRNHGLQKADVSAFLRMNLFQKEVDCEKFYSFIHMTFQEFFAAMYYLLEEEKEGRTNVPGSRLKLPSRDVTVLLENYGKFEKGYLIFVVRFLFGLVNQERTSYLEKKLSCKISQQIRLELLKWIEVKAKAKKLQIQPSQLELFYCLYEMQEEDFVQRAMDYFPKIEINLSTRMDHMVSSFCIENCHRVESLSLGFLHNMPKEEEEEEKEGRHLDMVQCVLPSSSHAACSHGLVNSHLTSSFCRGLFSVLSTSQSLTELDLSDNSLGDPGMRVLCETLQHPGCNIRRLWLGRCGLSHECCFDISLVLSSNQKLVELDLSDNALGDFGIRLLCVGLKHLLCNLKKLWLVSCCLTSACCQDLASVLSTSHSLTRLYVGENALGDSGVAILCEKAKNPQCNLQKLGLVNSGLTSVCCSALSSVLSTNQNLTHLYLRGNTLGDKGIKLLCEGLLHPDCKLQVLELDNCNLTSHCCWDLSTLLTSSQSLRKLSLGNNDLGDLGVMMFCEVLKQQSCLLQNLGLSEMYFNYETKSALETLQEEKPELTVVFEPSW
- EXPERIMENTAL DETAILS: THP-1 cells pyroptosis assay
- Assay type: cell-based
- Design: Seed THP-1 cells (25,000 cells/well) containing 1.0 μg/ml LPS; host or cells: THP-1
- PROTOCOL CONDITIONS: LPS 1.0 μg/ml, nigericin 5 μM, resazurin readout, 10 μM top dose (Example 2: top dose of 30 μM)
pIC50: −log10 of the molar value.
Assign pIC50 to each entry below.

# input compound: O=S(=O)(NCc1cccnc1)c1nnc(Nc2c3c(cc4c2CCC4)CCC3)[nH]1 ; wanted: its pIC50
≥ 5.30

# input compound: O=S(=O)(c1nnc(Nc2c3c(cc4c2CCC4)CCC3)[nH]1)N1CCC2(CCN(C3CC3)C2)CC1 ; wanted: its pIC50
≥ 5.30

# input compound: CN(C)C1CCCN(S(=O)(=O)c2nnc(Nc3c4c(cc5c3CCC5)CCC4)[nH]2)CC1 (centres unmarked) ; wanted: its pIC50
≥ 6.30

# input compound: CS(=O)(=O)c1nnc(Nc2c(-c3ccnc(OC4CCOCC4)c3)ccc3c2CCC3)[nH]1 ; wanted: its pIC50
≥ 5.30

# input compound: COc1cc(-c2cc(C#N)c3c(c2Nc2nnc(S(=O)(=O)N4CCC(N(C)C)CC4)[nH]2)CCC3)ccn1 ; wanted: its pIC50
≥ 5.30

# input compound: COc1cc(-c2cc(F)cc(C(C)C)c2Oc2nnc(S(=O)(=O)N3CC4(CCN(C)C4)C3)[nH]2)ccn1 ; wanted: its pIC50
≥ 6.30

# input compound: COc1cc(-c2cc(F)cc(C(C)C)c2Nc2nnc(S(=O)(=O)c3ccccc3)[nH]2)ccn1 ; wanted: its pIC50
≥ 5.30

# input compound: CN1CCC12CCN(S(=O)(=O)c1nnc(Nc3c4c(cc5c3CCC5)CCC4)[nH]1)CC2 ; wanted: its pIC50
≥ 6.30

Every entry's value here was drawn from patent US20210261512A1.
